Values from ChEMBL document CHEMBL1149175

- system.name: Interleukin-2 (Homo sapiens, UniProt P60568)
- Sequence (P60568 whole entry): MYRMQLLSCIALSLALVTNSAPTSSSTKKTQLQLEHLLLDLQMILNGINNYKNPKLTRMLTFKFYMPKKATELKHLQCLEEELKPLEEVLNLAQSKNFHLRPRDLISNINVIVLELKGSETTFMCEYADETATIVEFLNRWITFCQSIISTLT
- protocol.notes: Effective concentration required against phosphorylation of Mammary gland factor/STAT5
- Format: functional, Mus musculus
reported.property: EC50 (µM)

# smi, reported.property, observed.result
measured = [
    ("COC(=O)[C@H](Cc1ccc(C#Cc2ccccc2)cc1)NC(=O)C[C@H]1CCCN(C(=N)N)C1", "EC50", 100),
]

====

- system.name: Interleukin-2 (Homo sapiens, UniProt P60568)
- protocol.notes: Inhibition of mouse interleukin-2 alpha receptor by ELISA
- conditions.used: target entry is the homologue from another species
pIC50: −log10 of the molar value.
Each record here notes measured pIC50.
reported.property: pIC50

# smi, reported.property, observed.result
rows = [
    ("COC(=O)[C@H](Cc1ccc(C#Cc2ccccc2)cc1)NC(=O)CNC(=O)CNC(=N)N", "pIC50", "< 2.70"),
    ("COC(=O)[C@H](Cc1ccc(C#Cc2ccccc2)cc1)NC(=O)CNC(=O)[C@H](N=C(N)N)C(C)C", "pIC50", "< 2.70"),
    ("COC(=O)[C@H](Cc1ccc(C#Cc2ccccc2)cc1)NC(=O)CNC(=O)[C@@H](C)N=C(N)N", "pIC50", "~2.70"),
]
